Assay: protein stability index of a GFP-peptide fusion (yeast GPS) (PSI 1-4); higher = more stable; sorted into four equal gates, so the index is relative within each strain
Conditions: ubr1∆
experimental endpoint: protein stability index
Just the number, please, no unit attached.

> print(dat)
             sequence.input  measured
1  IEPVTKVSSLKMFIQRI [YCS4]      3.31

Output protein stability index of ASFGKNLQIRQLFNWCL [DSN1]
2.33

Fill in protein stability index for record MQPFDSGHDDLVHDVVY [YGL100W/SEH1]
3.26

Return protein stability index (reported value) for this sequence: EEQLDALECRLASAIAS [CSN12]
1.81

Please report the measured protein stability index for TTSERVSNENKKNIDYQ [RRI1]
3.05

Tell me measured protein stability index for FNKSAELSRIENEVENI [YCS4] please.
3.39

Find the measured protein stability index of VGRRAANLRVLNSYWVN [RPL15A] and report it.
1.69

Please give measured protein stability index of the following entry: VGVENNGQYAAFVKDMQ [RPC37]
3.41

# return recorded protein stability index for input DCMIAHGAASFLKERLM [RPB2]
2.09

Output measured protein stability index for this item: KGLIKVNGSPITLVEPE [RPS16A]
3.24

Supply recorded protein stability index for KAASSTRIFQALPRKLR [POP1] here.
2.77

Check the records and state protein stability index for ALERNWPIVNSKVYFNN [RPN12]
1.9

Supply protein stability index value. Item: PSVAAEYVYFFNNTSVI [RPC40]
1.79

Give me measured protein stability index, please, for this sequence: YTQQQALEYIGAKVKTM [RET1]
2.1

Give recorded protein stability index. SAGQPNLLLSASRDKTL [ASC1]
1.91

Recall and state the measured protein stability index for KGKTPKNAAESSYMGKH [PRP28] .
3.33

Report measured protein stability index; entry is LRKSELEYYAMLSKTKV [RPL30]
2.82

###

Listed here: items and their measured protein stability index.
Assay: protein stability index of a GFP-peptide fusion (yeast GPS) (PSI 1-4); higher = more stable; sorted into four equal gates, so the index is relative within each strain
Details: doa10∆
Note: the reply should be a number with no unit written.

Worked cases, answers included:
> print(dat)
               sequence.input    experimental.endpoint  measured
1    WIAMRREKRDRTHFKRM [PRP8]  protein stability index      1.99
2    SKWFNLEKIHSIEVQSL [SWI3]  protein stability index      2.67
3  EAHPTKVKNFGVWVRYD [RPL20A]  protein stability index      3.02
4    SETDLNDIPLGSGQPDN [SRB8]  protein stability index      3.09

Give recorded protein stability index. YGEATSPFGAYGEAPTS [RPO21]
2.48

Please indicate protein stability index recorded for KLNIETMRKISSETDDD [DSN1]
2.56

Please list protein stability index recorded for the sequence IEILVKDNECSSFEENN [RRI2]
2.86

Give the reported value of protein stability index for this record: VMKDIYKVENVTLYWNN [ESC2]
1.42

Please give the documented protein stability index of PHSLATKTTGKCGSVTV [RPS2]
1.2

Quickly give me recorded protein stability index for ERFQVMVLRKQKRYTVK [RPL14A]
2.37

# return recorded protein stability index for entry IYDKKDHKYVCTFSMEP [SRB8]
2.85

Report protein stability index, nothing else, for this sequence: ARDEILPLRLQFNEFIQ [PGD1]
2.55

Provide measured protein stability index value, entry: KQDKTLQKVENQTIKEA [YIL149C/MLP2]
3.22

Provide measured protein stability index value, entry: KLPLSVINVSAQRDRRY [RPS17A]
1.8

Origin of measurements: the supplement of paper PMC9732359
